B1: Solute carrier family 12 member 6 (Mus musculus), Q924N4-1 (parent)
chain: MHPPEATTKMSSVRFMVTPTKIDDIPGLSDTSPDLSSRSSSRVRFSSRESVPETSRSEPMSELSGATTSLATVALDPSSDRTSNPQDVTEDPSQNSITGEHSQLLDDGHKKARNAYLNNSNYEEGDEYFDKNLALFEEEMDTRPKVSSLLNRMANYTNLTQGAKEHEEAENITEGKKKPTKSPQMGTFMGVYLPCLQNIFGVILFLRLTWVVGTAGILQAFAIVLICCCCTMLTAISMSAIATNGVVPAGGSYFMISRALGPEFGGAVGLCFYLGTTFAAAMYILGAIEIFLVYIVPRAAIFRSDDALKESAAMLNNMRVYGTAFLVLMVLVVFIGVRYVNKFASLFLACVIVSILAIYAGAIKSSFAPPHFPVCMLGNRTLSSRHLDICSKTKEVDNMTVPSKLWGFFCNSSQFFNATCDEYFVHNNVISIQGIPGLASGIITENLWSNYLPKGEIIEKPSAKSSDVLGNLNHEYVLADITTSFTLLVGIFFPSVTGIMAGSNRSGDLKDAQKSIPIGTILAILTTSFVYLSNVVLFGACIEGVVLRDKFGDAVKGNLVVGTLSWPSPWVIVIGSFFSTCGAGLQSLTGAPRLLQAIAKDNIIPFLRVFGHSKANGEPTWALLLTAAIAELGILIASLDLVAPILSMFFLMCYLFVNLACALQTLLRTPNWRPRFRYYHWALSFMGMSICLALMFISSWYYAIVAMVIAGMIYKYIEYQGAEKEWGDGIRGLSLSAARFALLRLEEGPPHTKNWRPQLLVLLKLDEDLHVKHPRLLTFASQLKAGKGLTIVGSVIVGNFLENYGDALAAEQTIKHLMEAEKVKGFCQLVVAAKLKEGISHLIQSCGLGGMKHNTVVMGWPNGWRQSEDARAWKTFIGTVRVTTAAHLALLVAKNVSFFPSNVEQFSEGNIDVWWIVHDGGMLMLLPFLLKQHKVWRKCSIRIFTVAQLEDNSIQMKKDLATFLYHLRIEAEVEVVEMHDSDISAYTYERTLMMEQRSQMLRHMRLSKTERDREAQLVKDRNSMLRLTSIGSDEDEETETYQEKVHMTWTKDKYMASRGQKVKSMEGFQDLLNMRPDQSNVRRMHTAVKLNEVIVNKSHEAKLVLLNMPGPPRNPEGDENYMEFLEVLTEGLERVLLVRGGGSEVITIYS

- Variants of: B1
- Condition Set: with oxsr1_mouse Oxsr1, Q6P9R2
- Sequence (Q6P9R2 whole entry): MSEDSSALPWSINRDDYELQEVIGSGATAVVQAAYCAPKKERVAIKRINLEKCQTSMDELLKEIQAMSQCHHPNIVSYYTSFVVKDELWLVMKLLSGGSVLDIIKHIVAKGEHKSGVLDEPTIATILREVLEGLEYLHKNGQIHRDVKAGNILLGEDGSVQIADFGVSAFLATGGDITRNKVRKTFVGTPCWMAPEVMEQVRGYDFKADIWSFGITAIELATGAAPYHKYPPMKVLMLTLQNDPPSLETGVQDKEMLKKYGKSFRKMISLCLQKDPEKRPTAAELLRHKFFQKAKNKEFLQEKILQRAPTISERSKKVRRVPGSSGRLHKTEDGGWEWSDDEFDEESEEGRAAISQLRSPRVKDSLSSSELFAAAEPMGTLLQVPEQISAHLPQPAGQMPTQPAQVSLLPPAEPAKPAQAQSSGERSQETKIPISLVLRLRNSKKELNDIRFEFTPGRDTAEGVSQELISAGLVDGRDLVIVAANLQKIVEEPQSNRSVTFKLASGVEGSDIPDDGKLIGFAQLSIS
Quantity: effect of a mutation on the interaction

Q. What does the record list as effect of a mutation on the interaction for `F15A` ?
A. decreasing interaction

Q. I have this variant here, `V17A` , and I need its recorded effect of a mutation on the interaction.
A. decreasing interaction

Q. What value of measured effect of a mutation on the interaction is listed for `P19A` ?
A. decreasing interaction

Q. Give the measured effect of a mutation on the interaction of `K21A` .
A. decreasing interaction

Q. Record request: effect of a mutation on the interaction value, item `R14A`
A. decreasing interaction

// next item, effect of a mutation on the interaction requested
Q. Tell me the measured effect of a mutation on the interaction of `I22A` , please.
A. decreasing interaction
